Test system: BJ
assay_name: Cytotoxicity against human BJ cells assessed as reduction in cell viability measured after 72 hrs by MTS assay
Format: cell-based
parameter_measured: pIC50
Scale for pIC50: -log10 of concentration given in mol/L; no unit attached.

Qu. Look up pIC50: C=C(/C=C/c1ccc(Br)cc1F)[C@@H]1CC[C@]2(C(=O)O)CC[C@]3(C)[C@H](CC[C@@H]4[C@@]5(C)CC[C@H](O)C(C)(C)[C@@H]5CC[C@]43C)[C@@H]12
Ans. 4.37

Qu. Look up pIC50: C=C(/C=C/c1ccccc1Br)[C@@H]1CC[C@]2(C(=O)O)CC[C@]3(C)[C@H](CC[C@@H]4[C@@]5(C)CC[C@H](O)C(C)(C)[C@@H]5CC[C@]43C)[C@@H]12
Ans. 4.33

====

For each record, write down the corresponding IC50.
Tested on: BJ
assay_name: Cytotoxicity against human BJ cells assessed as reduction in cell viability measured after 72 hrs by MTS assay
Assay type: cell-based
State just the number; it will be interpreted in µM.

Qu. Look up IC50: C=C(/C=C/c1ccc([N+](=O)[O-])cc1)[C@@H]1CC[C@]2(C(=O)O)CC[C@]3(C)[C@H](CC[C@@H]4[C@@]5(C)CC[C@H](O)C(C)(C)[C@@H]5CC[C@]43C)[C@@H]12
Ans. 24.3

Qu. Look up IC50: C=C(/C=C/c1ccccc1F)[C@@H]1CC[C@]2(C(=O)O)CC[C@]3(C)[C@H](CC[C@@H]4[C@@]5(C)CC[C@H](O)C(C)(C)[C@@H]5CC[C@]43C)[C@@H]12
Ans. 42.1

Qu. Look up IC50: C=C(/C=C/c1ccc(F)cc1)[C@@H]1CC[C@]2(C(=O)O)CC[C@]3(C)[C@H](CC[C@@H]4[C@@]5(C)CC[C@H](O)C(C)(C)[C@@H]5CC[C@]43C)[C@@H]12
Ans. 44.6

====

assay_name: Apparent permeability of the compound in human Caco2 cells at pH 7.4 at 10 micromol/L measured after 2 hrs by RF-MS analysis
Format: ADME, cell-based
study_conditions: Caco-2, pH 7.4, dose 10 µmol/L
parameter_measured: Papp at 2 h, 10 µM (×10⁻⁶ cm/s)
State just the number; it will be interpreted in ×10⁻⁶ cm/s.

Qu. Look up Papp at 2 h, 10 µM: C=C(/C=C/c1ccc([N+](=O)[O-])cc1)[C@@H]1CC[C@]2(C(=O)O)CC[C@]3(C)[C@H](CC[C@@H]4[C@@]5(C)CC[C@H](O)C(C)(C)[C@@H]5CC[C@]43C)[C@@H]12
Ans. 0.96

Qu. Look up Papp at 2 h, 10 µM: C=C(/C=C/c1cccc(Cl)c1)[C@@H]1CC[C@]2(C(=O)O)CC[C@]3(C)[C@H](CC[C@@H]4[C@@]5(C)CC[C@H](O)C(C)(C)[C@@H]5CC[C@]43C)[C@@H]12
Ans. 17.5

====

assay_name: Microsomal stability in human liver microsomes assessed as parent compound remaining at 2 uM in the presence of NADPH measured after 30 mins by RF-MS analysis
Assay type: ADME, Microsome
study_conditions: read-out: Stability
For each record, write down the corresponding remaining at 0.5 h, 2 µM.
State just the number; it will be interpreted in %.

Qu. Look up remaining at 0.5 h, 2 µM: C=C(/C=C/c1cccc(Cl)c1)[C@@H]1CC[C@]2(C(=O)O)CC[C@]3(C)[C@H](CC[C@@H]4[C@@]5(C)CC[C@H](O)C(C)(C)[C@@H]5CC[C@]43C)[C@@H]12
Ans. 92.4

Qu. Look up remaining at 0.5 h, 2 µM: C=C(/C=C/c1ccc([N+](=O)[O-])cc1)[C@@H]1CC[C@]2(C(=O)O)CC[C@]3(C)[C@H](CC[C@@H]4[C@@]5(C)CC[C@H](O)C(C)(C)[C@@H]5CC[C@]43C)[C@@H]12
Ans. 78.5
